- Test system: Salmonella enterica typhimurium
- testName: growth AUC normalised to DMSO control (fraction of control); higher = less growth inhibition, active = hit call of the paper
- conditions: 20 µM
Structures can show the parent of a compound that is named as a salt.
measuredMetric: growth AUC normalised to DMSO control
Could you respond with only the numeric value?

Some solved cases for reference:
molecule | measuredMetric | assayValue
CCCNCC(O)COc1ccccc1C(=O)CCc1ccccc1 (centres undefined) [Propafenone hydrochloride] | growth AUC normalised to DMSO control | 1
CC(CN(C)C)CN1c2ccccc2Sc2ccccc21 (centres undefined) [Trimeprazine tartrate] | growth AUC normalised to DMSO control | 0.988

**Q:** Recorded growth AUC normalised to DMSO control of CCCCNc1c(C(=O)OCC)c(C)nc2c1cnn2CC [Tracazolate hydrochloride] , please.
**A:** 1

**Q:** Recorded growth AUC normalised to DMSO control of CO[C@H]1/C=C/O[C@@]2(C)Oc3c(C)c(O)c4c(O)c(c(/C=N/N5CCN(C6CCCC6)CC5)c(O)c4c3C2=O)NC(=O)/C(C)=C\C=C\[C@H](C)[C@H](O)[C@@H](C)[C@@H](O)[C@@H](C)[C@H](OC(C)=O)[C@@H]1C , please.
**A:** 0.258

----------
- Test system: P. vulgatus WT
- testName: growth AUC normalised to DMSO control (median) (fraction of control); higher = less growth inhibition, active = hit call of the paper
- conditions: 20 µM
Counter-ions that a name gives are not always drawn.
measuredMetric: growth AUC normalised to DMSO control

Some solved cases for reference:
compound | growth AUC normalised to DMSO control
CCN(CC)CCNc1ccc(CO)c2sc3ccccc3c(=O)c12 [Hycanthone] | 0.96 (inactive)
CCC1(C)CC(=O)NC1=O (centres undefined) [Ethosuximide] | 1.05 (inactive)
CC[N+](C)(CC)CCOC(=O)C1c2ccccc2Oc2ccccc21 [Methantheline bromide] | 0.981 (inactive)
CC(C)(C)c1ccc(C(O)CCCN2CCC(C(O)(c3ccccc3)c3ccccc3)CC2)cc1 (centres undefined) [Terfenadine] | 0.892 (inactive)
CC(C)Oc1ccc2c(=O)c(-c3ccccc3)coc2c1 [Ipriflavone] | 1.07 (inactive)

**Q:** Fill in the recorded growth AUC normalised to DMSO control for this compound, with P. vulgatus WT as test system: CCN(CC)C(=O)Nc1ccc(OCC(O)CNC(C)(C)C)c(C(C)=O)c1 (centres undefined) [Celiprolol hydrochloride]
**A:** 1.01 (inactive)

**Q:** Fill in the recorded growth AUC normalised to DMSO control for this compound, with P. vulgatus WT as test system: C/C(=C(\CCOC(=O)c1ccccc1)SS/C(CCOC(=O)c1ccccc1)=C(/C)N(C=O)Cc1cnc(C)nc1N)N(C=O)Cc1cnc(C)nc1N [Bisbentiamine]
**A:** 1.07 (inactive)

**Q:** Fill in the recorded growth AUC normalised to DMSO control for this compound, with P. vulgatus WT as test system: Cn1c(=O)cc(N2CCC[C@@H](N)C2)n(Cc2ccccc2C#N)c1=O [Alogliptin benzoate]
**A:** 0.971 (inactive)

**Q:** Fill in the recorded growth AUC normalised to DMSO control for this compound, with P. vulgatus WT as test system: CN(C)CCC=C1c2ccccc2C=Cc2ccccc21 [Cyclobenzaprine hydrochloride]
**A:** 0.936 (inactive)

----------
- System: S. enterica typhimurium tolC KO
- testName: growth AUC normalised to DMSO control (median) (fraction of control); higher = less growth inhibition, active = hit call of the paper
- conditions: 20 µM
Where a name gives a salt, the structure may show the parent alone.
measuredMetric: growth AUC normalised to DMSO control
Could you respond with only the numeric value?

molecule | growth AUC normalised to DMSO control
CC1(C)S[C@@H]2[C@H](NC(=O)[C@H](N)c3ccccc3)C(=O)N2[C@H]1C(=O)O [Ampicillin trihydrate] | 0.0201
O=C1Nc2ccccc2C1(c1ccc(O)cc1)c1ccc(O)cc1 | 0.99
CC(=O)O[C@@]12CO[C@@H]1C[C@H](O)[C@@]1(C)C(=O)[C@H](O)C3=C(C)[C@@H](OC(=O)[C@H](O)[C@@H](NC(=O)OC(C)(C)C)c4ccccc4)C[C@@](O)([C@@H](OC(=O)c4ccccc4)[C@H]21)C3(C)C | 1
Cc1cc(C2CCCCC2)n(O)c(=O)c1 | 0.952
CC(C)(Sc1cc(C(C)(C)C)c(O)c(C(C)(C)C)c1)Sc1cc(C(C)(C)C)c(O)c(C(C)(C)C)c1 | 1
C[C@@H]1CCC[C@H](C)N1NC(=O)c1ccc(Cl)c(S(N)(=O)=O)c1 [Clopamide] | 0.988
N[C@@H]1CCCCN(c2c(F)cc3c(=O)c(C(=O)O)cn(C4CC4)c3c2Cl)C1 [Besifloxacin hydrochloride] | 0.00833

Then there is this molecule:
**Q:** Fill in the recorded growth AUC normalised to DMSO control for this molecule, with S. enterica typhimurium tolC KO as test system: O=C1[C@H]2CCCC[C@H]2C(=O)N1CCCCN1CCN(c2nsc3ccccc23)CC1 [Perospirone hydrochloride]
**A:** 0.98

----------
- Tested on: S. enterica typhimurium WT
- testName: growth AUC normalised to DMSO control (median) (fraction of control); higher = less growth inhibition, active = hit call of the paper
- conditions: 20 µM
Structures can show the parent of a compound that is named as a salt.
Outcome field: choose from true (active), false (inactive)

molecule | assignedClass
Cc1cccc(N(C)C(=S)Oc2ccc3ccccc3c2)c1 [Tolnaftate] | false

**Q:** Lab log entry: CC(=O)O[C@@]12CO[C@@H]1C[C@H](O)[C@@]1(C)C(=O)[C@H](O)C3=C(C)[C@@H](OC(=O)[C@H](O)[C@@H](NC(=O)OC(C)(C)C)c4ccccc4)C[C@@](O)([C@@H](OC(=O)c4ccccc4)[C@H]21)C3(C)C — outcome as called in the assay?
**A:** false

**Q:** Lab log entry: CC1COc2c(N3CCN(C)CC3)c(F)cc3c(=O)c(C(=O)O)cn1c23 (stereo not drawn) — outcome as called in the assay?
**A:** true

**Q:** Lab log entry: CCCCN(CCCC)CCC(O)c1cc2c(Cl)cc(Cl)cc2c2cc(C(F)(F)F)ccc12 (stereo not drawn) [Halofantrine hydrochloride] — outcome as called in the assay?
**A:** false

**Q:** Lab log entry: NC(=O)c1ncn([C@@H]2O[C@H](CO)[C@@H](O)[C@H]2O)n1 — outcome as called in the assay?
**A:** false

**Q:** Lab log entry: O=c1[nH]c(=O)n([C@H]2C[C@H](O)[C@@H](CO)O2)cc1/C=C/Br — outcome as called in the assay?
**A:** false

**Q:** Lab log entry: COc1ccc(OC)c(C(O)CNC(=O)CN)c1 (stereo not drawn) [Midodrine hydrochloride] — outcome as called in the assay?
**A:** false

**Q:** Lab log entry: Nc1nc2[nH]cnc2c(=S)[nH]1 — outcome as called in the assay?
**A:** false

----------
- Test system: P. vulgatus RND KO
- testName: growth AUC normalised to DMSO control (median) (fraction of control); higher = less growth inhibition, active = hit call of the paper
- conditions: 20 µM
measuredMetric: growth AUC normalised to DMSO control
Could you respond with only the numeric value?

compound | testTarget | assayValue
CC(=O)OC[C@H]1O[C@@H]([S-])[C@H](OC(C)=O)[C@@H](OC(C)=O)[C@@H]1OC(C)=O.CCP(CC)CC.[Au+] | P. vulgatus RND KO | 0.00406
Cc1nc2n(c(=O)c1CCN1CCC(c3noc4cc(F)ccc34)CC1)CCCC2 | P. vulgatus RND KO | 1.03

**Q:** Recorded growth AUC normalised to DMSO control of O=C(CCCN1CCC(O)(c2ccc(Br)cc2)CC1)c1ccc(F)cc1 , please.
**A:** 0.999

**Q:** Recorded growth AUC normalised to DMSO control of C/C(O)=C(\C#N)C(=O)Nc1ccc(C(F)(F)F)cc1 [Teriflunomide] , please.
**A:** 0.969

----------
- System: S. enterica typhimurium WT
- testName: growth AUC normalised to DMSO control (median) (fraction of control); higher = less growth inhibition, active = hit call of the paper
- conditions: 20 µM
Lab note: anything with growth AUC normalised to DMSO control at or over 1 counts as 1 (yes); the rest go in 0 (no).

molecule | assignedClass
CCC1=C(C)CN(C(=O)NCCc2ccc(S(=O)(=O)NC(=O)N[C@H]3CC[C@H](C)CC3)cc2)C1=O [Glimepiride] | 1 (yes)

**Q:** Does the molecule O=C(O)c1cn(-c2ccc(F)cc2)c2cc(N3CCNCC3)c(F)cc2c1=O [Sarafloxacin] have recorded growth AUC normalised to DMSO control that is 1 or more?
**A:** 0 (no)

----------
- System: Vibrio cholerae
- testName: growth AUC normalised to DMSO control (fraction of control); higher = less growth inhibition, active = hit call of the paper
- conditions: 20 µM
Counter-ions that a name gives are not always drawn.
measuredMetric: growth AUC normalised to DMSO control
Could you respond with only the numeric value?

molecule | testTarget | growth AUC normalised to DMSO control
CC(C)[C@H](N)C(=O)OCCOCn1cnc2c(=O)nc(N)[nH]c21 [Valacyclovir hydrochloride] | Vibrio cholerae | 0.995
CC(=O)O[C@]1(C(C)=O)CC[C@H]2[C@@H]3C=C(Cl)C4=CC(=O)[C@@H]5C[C@@H]5[C@]4(C)[C@H]3CC[C@@]21C [Cyproterone acetate] | Vibrio cholerae | 1
CCn1cc(C(=O)O)c(=O)c2cnc(N3CCCC3)nc21 | Vibrio cholerae | 0.0557

**Q:** Fill in the recorded growth AUC normalised to DMSO control for this molecule, with Vibrio cholerae as test system: CN1CCN(CC(=O)N2c3ccccc3C(=O)Nc3cccnc32)CC1 [Pirenzepine dihydrochloride]
**A:** 0.988
